// reported pKd per item
molecular target: HIV-1 NefNL4-3 (Human immunodeficiency virus type 1 group M subtype B, UniProt P03406, A33V/T15A/T51N/V11I); assay: Surface plasmon resonance binding to recombinant full-length Nef (NL4-3); conditions: KD, M, Table 4; SPR fit 2-step induced fit, KD = koff/kon × koff2/(koff2 + kon2)
Interpret pKd as the negative base-10 log of the concentration measured in mol/L.

Use these answered entries as a reference point.
>>> numeric_readout("Cn1c(-n2nc(-c3ccc(C(F)(F)F)cc3)c(CCc3ccc(F)cc3)c2O)nc2ccccc21 [Compound I-401]")
4.11
>>> numeric_readout("Oc1c(CCC2CCN(CC(F)(F)F)CC2)c(-c2ccc(C(F)(F)F)cc2)nn1-c1nc2ccccc2[nH]1 [Compound I-1006]")
8.91
>>> numeric_readout("CC(C)(C)OC(=O)N1CCC(CCc2c(-c3ccc(S(C)(=O)=O)cc3)nn(-c3nc4ccccc4[nH]3)c2O)CC1 [Compound I-201]")
6.40

Looking up Oc1c(CCc2ccc(F)cc2)c(C2CC2)nn1-c1nc2cc(Cl)ccc2[nH]1 [Compound I-170] , I see its pKd listed as 7.90

---

tested on: TZM-bl cell line; type: cell-based; settings: human, 1 μM
readout_name: % Cell Viability
Form entry: enter the amount, then its unit.

Short answer for CC(C)(C)OC(=O)N1CCN(Cc2nn(-c3nc4ccccc4[nH]3)c(O)c2CCc2ccc(F)cc2)CC1 [Compound I-211] : % Cell Viability was 100%

The compound identified as COc1cc(N2CCC(CCc3c(C4CC4)nn(-c4nc5cc(Cl)ccc5[nH]4)c3O)CC2)nc(OC)n1 [Compound I-902] registered its % Cell Viability at 100%

---

target: HIV-1 NefNL4-3 (Human immunodeficiency virus type 1 group M subtype B, UniProt P03406, A33V/T15A/T51N/V11I); assay: Surface plasmon resonance binding to recombinant full-length Nef (NL4-3)
Measured pKd, listed per entry.
// returns pKd (minus log10 of molar concentration), number only

Solved cases (6 shown):
>>> numeric_readout("CS(=O)(=O)c1ccc(-c2nn(-c3nc4cc(Cl)ccc4[nH]3)c(O)c2CCC2CCOCC2)cc1")
6.12
>>> numeric_readout("CC(C)(C)OC(=O)N1CCCC(Cc2nn(-c3nc4ccccc4[nH]3)c(O)c2CCc2ccc(F)cc2)C1 (centres unmarked)")
7.68
>>> numeric_readout("O=S(=O)(C1CCCC1)N1CCC(c2nn(-c3nc4ccccc4[nH]3)c(O)c2CCc2ccc(F)cc2)CC1")
7.69
>>> numeric_readout("CC(C)CS(=O)(=O)N1CCC(c2nn(-c3nc4ccccc4[nH]3)c(O)c2CCc2ccc(F)cc2)CC1")
9.86
>>> numeric_readout("CS(=O)(=O)c1ccc(-c2nn(-c3nc4ccccc4[nH]3)c(O)c2CCC2CCN(CC(F)(F)F)CC2)cc1")
4.54
>>> numeric_readout("O=C(Cc1ccncc1)N1CCC(c2nn(-c3nc4ccccc4[nH]3)c(O)c2CCc2ccc(F)cc2)CC1")
6.24

response.value for CS(=O)(=O)N1CCC(CCc2c(-c3ccc(C(F)(F)F)cn3)nn(-c3nc4ccccc4[nH]3)c2O)CC1 (field: pKd) = 5.71

CC(C)(C)OC(=O)N1CCC(Cc2nn(-c3nc4ccccc4[nH]3)c(O)c2CCc2ccc(F)cc2)CC1 has a reported pKd of 8.98

Consider CC(C)(C)OC(=O)N1CCC(c2nn(-c3nc4ccc(Cl)cc4[nH]3)c(O)c2CCc2ccc(F)cc2)CC1 . Its measured pKd is 6.91

So for CC(C)(O)C(=O)N1CCC(CCc2c(C3CC3)nn(-c3nc4cc(Cl)ccc4[nH]3)c2O)CC1 , the logged pKd turned out to be 7.16

Noted for Oc1c(CCc2ccc(F)cc2)c(-c2ccc(C(F)(F)F)cc2)nn1-c1cc(C(F)(F)F)n[nH]1 : its pKd reads 5.76

For this molecule ( CC(=O)N1CCC(c2nn(-c3nc4cc(Cl)ccc4[nH]3)c(O)c2CCn2nccn2)CC1 ), measured pKd is 5.44

Reported pKd for CS(=O)(=O)c1ccc(-c2nn(-c3cc(C(F)(F)F)n[nH]3)c(O)c2CCc2ccc(F)cc2)cc1 was 5.74

So for CC(C)OC(=O)N1CCC(c2nn(-c3nc4cc(Cl)ccc4[nH]3)c(O)c2CCC2CCOCC2)CC1 , the logged pKd turned out to be 7.58
